I'd be grateful if you could share measured inhibition for these entries.
target: Induced myeloid leukemia cell differentiation protein Mcl-1 (Homo sapiens) (UniProt Q07820); assay: MCL1-BIM peptide interaction disruptors – biochemical, fluorescence polarization, primary screen (AID 2057); conditions: GST-MCL1 / FITC-Bim-BH3 fluorescence polarization; at 10.9 µM; active compounds read high;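 further: 0% = DMSO wells and 100% = unlabeled Bim-BH3 peptide control; higher means more loss of mP so more displacement of Bim peptide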
Sequence (Q07820 whole entry, looked up): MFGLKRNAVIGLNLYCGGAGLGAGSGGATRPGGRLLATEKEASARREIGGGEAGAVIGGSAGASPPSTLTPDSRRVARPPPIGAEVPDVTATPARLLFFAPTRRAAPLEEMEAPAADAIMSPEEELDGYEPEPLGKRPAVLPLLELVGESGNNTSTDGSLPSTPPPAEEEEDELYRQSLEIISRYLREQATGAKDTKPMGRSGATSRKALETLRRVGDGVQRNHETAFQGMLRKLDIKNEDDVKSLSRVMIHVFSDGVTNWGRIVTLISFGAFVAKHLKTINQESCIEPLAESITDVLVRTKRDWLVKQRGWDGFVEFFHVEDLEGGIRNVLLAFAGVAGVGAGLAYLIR
Among all 320,000 compounds or so, about 2,100 (0.66%) were called active. The sample holds actives, similar compounds and a random draw of the others, so the mix is not that of the screen.
One number for each entry, in %.

Guide cases for inhibition, answers given:
CCOC(=O)N1CCN(C(=O)C(C)NC(=O)c2ccco2)CC1 (stereo not given) : -1.38
CSc1ncccc1C(=O)OCc1ccc(Br)cc1 : 4.52
COc1cc(SC)ccc1C(=O)Nc1cc(C)ccn1 : 0.12
COc1ccc(C2/C=C\CN(S(=O)(=O)c3cccs3)CC(=O)N2Cc2ccc(F)cc2)cc1 (stereo not given) : 3.81

// each compound listed below needs its inhibition
1. CN1c2ccc(C=O)c3c(C=O)ccc(c23)N(C)C1(C)C
2. O=C(c1ccc(OC2CCN(C(=O)c3cccnc3)CC2)cc1)N1CCCCCC1

Given back:
[167, 1.48]

* * *

biological target: Induced myeloid leukemia cell differentiation protein Mcl-1 (Homo sapiens) (UniProt Q07820); test: MCL1-BIM peptide interaction disruptors – biochemical, fluorescence polarization, primary screen (AID 2057); details: GST-MCL1 / FITC-Bim-BH3 fluorescence polarization; at 10.9 µM;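 further: 0% = DMSO wells and 100% = unlabeled Bim-BH3 peptide control; higher means more loss of mP so more displacement of Bim peptide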
Screen size: about 320,000 compounds; about 2,100 (0.66%) were called active.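 How the source made its calls: active means inhibition above the mean inhibition of all tested compounds plus 3 SD, set per campaign (cut at about 40% in these data); inactive means the rest.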 Only a selection was taken, and actives are over-represented in it overall.
Result category, one only: Yes = active, No = inactive

Please review the following examples before continuing.
Cc1cc(C)n2nc(C(=O)N(C)C(c3ccccc3)c3ccccc3)nc2n1 : No
COc1ccc(N2CC(C(=O)NCCN3C(=O)S/C(=C\c4cccnc4)C3=O)CC2=O)c(OC)c1 (stereo not given) : Yes
Cc1c(C)c(C)c2[nH]c(=S)[nH]c2c1C : No
Cc1ccc(C2C(C#N)C(C#N)N3CCCN23)cc1 (stereo not given) : No

Now look at this one.
Asked: Recorded test call requested for Cc1cc(N2CCN(S(=O)(=O)c3ccc(C)c(C)c3)CC2)c2ccccc2n1
Given back: No

* * *

molecular target: Induced myeloid leukemia cell differentiation protein Mcl-1 (Homo sapiens); experiment: MCL1-BIM peptide interaction disruptors – biochemical, fluorescence polarization, primary screen (AID 2057); conditions: GST-MCL1 / FITC-Bim-BH3 fluorescence polarization; at 10.9 µM;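 further: 0% = DMSO wells and 100% = unlabeled Bim-BH3 peptide control; higher means more loss of mP so more displacement of Bim peptide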
The campaign covered roughly 320,000 compounds. About 2,100 (0.66%) were called active.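 Rule for the calls: active = inhibition above the mean inhibition of all tested compounds plus 3 SD, set per campaign (cut at about 40% in these data); inactive = the rest.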 The sample as a whole holds a higher share of actives than the screen did.
Result category, one only: active, inactive

Please review the following examples before continuing.
CCN(CC)C(=O)Oc1ccc(Br)cc1C(=O)Nc1ccc(F)c(Cl)c1 : inactive
O=C(c1ccc(F)c(S(=O)(=O)N2CCOCC2)c1)N(CCc1ccccc1)Cc1ccccc1 : inactive
CCOc1ccc(NC(=O)COc2ccc(C(=O)NC3CCCc4ccccc43)cc2OC)cc1 (stereo not drawn) : inactive

Asked: Recorded test call requested for COc1ccc(OCC(=O)NCCS(=O)(=O)N2CCN(c3ccc(F)cc3)CC2)cc1
Given back: inactive

Asked: Try this compound next: CC1CCCN(C(=O)c2cc(-c3ccco3)nc3ccccc23)C1 (stereo not drawn)
Given back: inactive

Asked: Try this compound next: N/C(=N\OC(=O)CCc1ccccc1)c1cccnc1
Given back: inactive

Asked: Try this compound next: CCCCC(NS(=O)(=O)c1ccc(C)cc1)C(=O)Oc1ccc2c3c(c(=O)oc2c1)CCC3 (stereo not drawn)
Given back: inactive

Values from PubChem BioAssay AID2057
